- Test system: UACC-257 melanoma
- procedure-details: NCI tumour cell line growth inhibition, 48 h
parameter: TGI (µM)
Express the result in µM but write the number alone.

INSERT INTO assay_data (structure_as_smiles, reported_result) VALUES
  ('O=C1C(=O)c2ccccc2C(O)=C1CCCc1ccc(C2CCCC2)cc1', 28.2);

Read the next record carefully.
Q: Fill in the recorded TGI for this compound, with UACC-257 melanoma as test system: CO/C(=C/C(=O)C(Cl)(Cl)Cl)CC/C(=C\C(=O)C(Cl)(Cl)Cl)OC
Ans: 43.8

* * *

Recorded TGI for the following molecules
- Test system: U251 CNS
- procedure-details: NCI tumour cell line growth inhibition, 48 h

Below: 3 molecules and their reported TGI.
INSERT INTO results (molecule, parameter, reported_result) VALUES
  ('CC(C)(C)CNC(=O)NCn1cc(-c2ccccc2)nn1', 'TGI', '> 100 µM'),
  ('CCCCCCC/C=C/[C@H]1O[C@]2(O)C(=O)C=C3C[C@@H](O[C@@H]4O[C@H](CO)[C@@H](O)C(O)[C@@H]4O)C[C@@H]3[C@H]2C=C1C (stereo not given in full)', 'TGI', '4.49 µM'),
  ('CSc1nc2c(nc(N)n2C2OC(COC(C)=O)C(OC(C)=O)C(OC(C)=O)C2OC(C)=O)c(=O)n1C (stereo not given)', 'TGI', '> 100 µM');

Q: Fill in the recorded TGI for this molecule, with U251 CNS as test system: CN(C)c1ccc(-c2c(C#N)c(O)n(NS(=O)(=O)c3ccccc3)c(=O)c2C#N)cc1
Ans: > 100 µM

Q: Fill in the recorded TGI for this molecule, with U251 CNS as test system: Cc1cc(C)nc(SCC(=O)OC2CC(C)CCC2C(C)C)n1 (stereo not given)
Ans: 53.8 µM

* * *

Recorded TGI for the following molecules
- Tested on: CAKI-1 renal
- procedure-details: NCI tumour cell line growth inhibition, 48 h

Below: 5 molecules and their reported TGI.
INSERT INTO assay_data (molecule, reported_result) VALUES
  ('COC(=O)c1ccc(NCc2c(O)ccc(O)c2Br)cc1Cl', '29.9 µM'),
  ('N=C(N)SCc1cc(Cl)cc(Cl)c1O', '33.3 µM'),
  ('Cc1cc(=O)n2c3c(c4c(cc13)c(CO)cc(=O)n4C)OC2', '> 100 µM'),
  ('COc1cccc(NC(=O)C(C)(C)C)c1SSc1c(NC(=O)C(C)(C)C)cccc1OC', '> 60.3 µM'),
  ('CC(C)OP(=O)(OC(C)C)c1ccc2c(c1)OCCOCCOCCOCCO2', '> 100 µM');

Read the next record carefully.
Q: Using the record for CC1=C(C(=O)Nc2ccc3[nH]ncc3c2)C(c2ccc(Cl)c(Cl)c2)CC(=O)N1 (stereo unspecified) , report its TGI.
Ans: > 25 µM

* * *

Recorded GI50 for the following molecules
- Test system: HCT-15 colon
- procedure-details: NCI tumour cell line growth inhibition, 48 h

Below: 2 molecules and their reported GI50.
INSERT INTO results (molecule, reported_result) VALUES
  ('O=c1c2c(c3ccccc3n1-c1ccccc1)NC(=S)NC2c1ccc(Cl)cc1 (stereo not drawn)', '2100 nM'),
  ('NCCCn1c2c(c3ccc([N+](=O)[O-])cc3c1=O)C(=O)c1cc(-c3ccccc3)ccc1-2', '187 nM');

Read the next record carefully.
Q: Using the record for COc1ccc(-c2nn(-c3cccc(NC(=O)Nc4ccccc4)c3)cc2-c2ccncc2)cc1Cl , report its GI50.
Ans: 1960 nM

Origin of values: PubChem BioAssay (NCI)
